- measurementTarget: BRG-1 (Homo sapiens, UniProt P51532)
- Construct: made in house; host or cells: High Five insect cells
- Sequence (P51532 whole entry): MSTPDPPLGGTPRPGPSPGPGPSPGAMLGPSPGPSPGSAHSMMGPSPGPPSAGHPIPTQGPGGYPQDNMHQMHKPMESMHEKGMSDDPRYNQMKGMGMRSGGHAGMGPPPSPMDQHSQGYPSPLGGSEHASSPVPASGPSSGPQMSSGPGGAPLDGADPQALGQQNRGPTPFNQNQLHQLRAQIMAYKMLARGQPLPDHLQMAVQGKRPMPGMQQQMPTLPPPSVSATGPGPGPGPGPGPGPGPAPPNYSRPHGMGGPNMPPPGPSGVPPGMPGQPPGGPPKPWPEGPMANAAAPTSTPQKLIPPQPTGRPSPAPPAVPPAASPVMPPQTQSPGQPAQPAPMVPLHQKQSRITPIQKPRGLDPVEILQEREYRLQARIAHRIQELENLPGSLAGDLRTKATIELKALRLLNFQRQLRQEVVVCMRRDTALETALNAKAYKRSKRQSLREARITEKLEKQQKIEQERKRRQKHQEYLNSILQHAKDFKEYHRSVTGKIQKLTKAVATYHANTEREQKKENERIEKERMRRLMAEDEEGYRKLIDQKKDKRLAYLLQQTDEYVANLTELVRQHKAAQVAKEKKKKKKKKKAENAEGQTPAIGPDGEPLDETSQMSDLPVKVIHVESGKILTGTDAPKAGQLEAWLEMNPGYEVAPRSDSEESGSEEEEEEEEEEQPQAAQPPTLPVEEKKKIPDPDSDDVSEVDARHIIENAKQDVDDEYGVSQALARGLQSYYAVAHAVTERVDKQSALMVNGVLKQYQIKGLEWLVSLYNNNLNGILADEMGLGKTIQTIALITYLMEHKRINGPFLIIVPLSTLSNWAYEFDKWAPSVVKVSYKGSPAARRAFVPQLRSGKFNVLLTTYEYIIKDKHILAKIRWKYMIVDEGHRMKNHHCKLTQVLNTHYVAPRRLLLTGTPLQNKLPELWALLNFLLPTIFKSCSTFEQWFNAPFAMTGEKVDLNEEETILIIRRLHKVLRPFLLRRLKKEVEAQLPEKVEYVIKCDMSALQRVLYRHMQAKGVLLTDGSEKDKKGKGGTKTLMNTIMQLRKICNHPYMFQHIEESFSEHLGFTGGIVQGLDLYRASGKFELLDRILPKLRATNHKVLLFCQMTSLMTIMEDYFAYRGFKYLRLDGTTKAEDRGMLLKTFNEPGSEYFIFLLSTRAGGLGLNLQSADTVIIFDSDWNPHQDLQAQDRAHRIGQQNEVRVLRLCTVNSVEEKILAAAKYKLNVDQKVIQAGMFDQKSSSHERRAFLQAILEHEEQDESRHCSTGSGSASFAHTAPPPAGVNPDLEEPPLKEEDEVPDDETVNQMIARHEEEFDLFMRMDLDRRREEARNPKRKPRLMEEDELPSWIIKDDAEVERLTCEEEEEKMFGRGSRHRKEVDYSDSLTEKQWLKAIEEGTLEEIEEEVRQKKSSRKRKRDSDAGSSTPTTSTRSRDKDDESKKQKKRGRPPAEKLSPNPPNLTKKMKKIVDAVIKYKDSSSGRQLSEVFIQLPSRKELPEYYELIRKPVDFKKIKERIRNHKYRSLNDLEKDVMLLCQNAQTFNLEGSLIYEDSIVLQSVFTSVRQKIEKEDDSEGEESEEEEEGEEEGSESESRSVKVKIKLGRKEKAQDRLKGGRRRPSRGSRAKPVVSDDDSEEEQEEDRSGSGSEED
- measurementDescription: ATPase catalytic activity of BRG-1, ADP-Glo in vitro biochemical assay
- experimentalSetup: ATPase catalytic activity, ADP-Glo; 30 nM BRG-1, 400 μM ATP; read-out: BRG1 IC50
pIC50: −log10 of the molar value.
Please mark True if the recorded pIC50 is equal to or greater than 6, and False if it falls below.

Here are 5 molecules together with their reported answers.
COC[C@H]1C[C@@H]1N(C)c1cccc(-c2ccc3cnc(CNC(=O)c4ccc5c(c4)S(=O)(=O)CCOC5)cc3n2)n1 | True
CO[C@@H]1C[C@H]1N(C)c1cccc(-c2ccc3cnc(CNC(=O)c4ccc5c(c4)S(=O)(=O)[C@@H](C)COC5)cc3n2)n1 | True
O=C(NCc1cc2nc(-c3cccc4c3OCC[C@H]4OC3COC3)ccc2cn1)c1ccc2c(c1)S(=O)(=O)CCOC2 | True
C[C@H]1COCc2ccc(C(=O)NCc3cc4nc(-c5cccc([C@@H]6CC6(F)F)n5)ccc4cn3)cc2S1(=O)=O | True
COC[C@H](NC(=O)c1ccc2c(c1)S(=O)(=O)CCOC2)c1cc2nc(-c3cccc(C4CC4)n3)ccc2cn1 | False

Query: Hello, I need to know if C[C@@H]1CN(c2cccc(-c3ccc4cnc(CNC(=O)c5ccc6c(c5)S(=O)(=O)CC[C@H](C5CC5)O6)cc4n3)n2)C[C@H](C)O1 has measured pIC50 not below 6. Thanks!
Response: False

Ref: patent US20230416248A1
